Value source: patent US9072707B2

Tested on: HUVEC
test_details: Migration (scratch) assay
Assay type: cell-based, human
experimental_conditions: 60 μg/ml peptide, 36 h pretreatment, overnight, FIG. 6b
measurement_type: migration of HUVEC

substance	target_system	value_measured
BP2-C: C-terminal domain peptide of IGFBP-2 including IGF-1-binding domain, amino acids 228-245, KHGLYNLKQCKMSLNGQR (SEQ ID NO: 7) [reference compound]	HUVEC	did not inhibit
BP2-HBD: heparin-binding domain derived from IGFBP-2, amino acids 171-188, KHHLGLEEPKKLRPPPAR (SEQ ID NO: 6) [reference compound]	HUVEC	did not inhibit
BP5-C: amino acids 201-218 of IGFBP-5, RKGFYKRKQCKPSRGRKR (SEQ ID NO: 4)	HUVEC	inhibited
BP5-mut: IGFBP-5 201-218 with G203A and Q209A mutations, RKAFYKRKACKPSRGRKR (SEQ ID NO: 5)	HUVEC	inhibited
